Could you please report measured half-life at 1 µM for the items listed next?
experiment: Metabolic stability in rat liver microsomes assessed as half-life at 1 uM measured upto 120 mins in presence of NADPH by LC-MS/MS analysis; format: ADME, Microsome
Answers are plain numbers, in h.

# count of solved cases: 3
COCc1ncc2c(-c3nc4cc(F)c(OCCOC(=O)Nc5cc(F)cc(C#N)c5)cc4s3)cc(C)cc2n1    2.12
COc1ncc2c(-c3nc4cc(F)c5c(c4s3)C[C@H](COC(=O)Nc3cc(F)cc(C#N)c3)O5)cc(C)cc2n1    1.73
COc1ncc2c(-c3nc4cc(F)c5c(c4s3)C[C@H](COC(=O)Nc3cccc(C#N)c3)O5)cc(C)cc2n1    1.49

Note: attention shifts to another entry.
Exercise: Item "COc1cc(Cl)c2nc(-c3cc(C)cc4c(=O)n(C)cnc34)sc2c1" has what recorded half-life at 1 µM?
Solution: 0.532

----------
Can you tell me pIC50 for the items I'm about to list?
biological target: Proteinase-activated receptor 4 (Homo sapiens); test: Antagonist activity at human PAR4 expressed in HEK293/Galpha15 cells assessed as inhibition of AYPGKF-NH2-induced calcium mobilization incubated for 30 mins by FLIPR assay
Sequence (Q96RI0 whole entry): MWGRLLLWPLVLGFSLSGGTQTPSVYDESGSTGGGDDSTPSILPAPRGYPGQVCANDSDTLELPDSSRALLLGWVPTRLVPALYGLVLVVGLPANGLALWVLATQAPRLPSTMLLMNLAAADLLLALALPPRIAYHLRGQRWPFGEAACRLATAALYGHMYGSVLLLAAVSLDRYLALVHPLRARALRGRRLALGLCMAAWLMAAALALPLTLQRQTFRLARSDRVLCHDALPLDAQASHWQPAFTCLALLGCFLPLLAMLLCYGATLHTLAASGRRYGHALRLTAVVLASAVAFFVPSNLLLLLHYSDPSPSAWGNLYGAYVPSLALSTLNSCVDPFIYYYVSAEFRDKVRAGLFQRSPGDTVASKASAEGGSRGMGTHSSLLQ
Answers are plain numbers, as −log10 of the molar value.

Here are 2 molecules together with their reported answers.
COCc1ncc2c(-c3nc4cc(F)c(OCCOC(=O)Nc5cc(F)cc(C#N)c5)cc4s3)cc(C)cc2n1    8.25
COc1ncc2c(-c3nc4cc(F)c5c(c4s3)C[C@H](COC(=O)Nc3cccc(C#N)c3)O5)cc(C)cc2n1    8.76

Lab note: next molecule to report on.
Exercise: Request the reported pIC50 associated with "COc1ncc2c(-c3nc4cc(F)c5c(c4s3)C[C@H](COC(=O)Nc3cc(F)cc(C#N)c3)O5)cc(C)cc2n1"
Solution: 9.02

----------
test: Tmax in iv dosed male Sprague-Dawley rat measured after 24 hrs by LC-MS/MS analysis; type: ADME, organism-based; conditions: in vivo
testReadout: Tmax (min)
One number for each entry, in min.

Exercise: What does the record list as Tmax for "COc1cc(Cl)c2nc(-c3cc(C)cc4c(=O)n(C)cnc34)sc2c1" ?
Solution: 4.8

----------
experiment: Oral bioavailability in male Sprague-Dawley rat at 2 mg/kg measured after 24 hrs by LC-MS/MS analysis; assay type: ADME, organism-based; conditions: in vivo
testReadout: bioavailability (%)
Answers are plain numbers, in %.

// below: answered molecules
COCc1ncc2c(-c3nc4cc(F)c(OCCOC(=O)Nc5cc(F)cc(C#N)c5)cc4s3)cc(C)cc2n1    13.2
COc1ncc2c(-c3nc4cc(F)c5c(c4s3)C[C@H](COC(=O)Nc3cc(F)cc(C#N)c3)O5)cc(C)cc2n1    27.3

Exercise: Bench note: what bioavailability did "COc1ncc2c(-c3nc4cc(F)c5c(c4s3)C[C@H](COC(=O)Nc3cccc(C#N)c3)O5)cc(C)cc2n1" show?
Solution: 50.5

----------
target: Proteinase-activated receptor 4 (Homo sapiens) (UniProt Q96RI0); experiment: Antagonist activity at PAR4 in human platelet rich plasma assessed as inhibition of gamma-PAR4 agonist peptide (AYPGKF-NH2)-induced platelet aggregation at 200 nM preincubated for 5 mins followed by peptide addition and measured after 5 mins by aggregometer relative to control; assay type: cell-based; settings: time 10.0 min
Sequence (Q96RI0 whole entry): as above
Provide the recorded inhibition for the entries that follow.
Please answer using the number first and the unit second.

Known inhibition results, listed for orientation:
COCc1ncc2c(-c3nc4cc(F)c(OCCOC(=O)N5CCOCC5)cc4s3)cc(C)cc2n1    34.5%
COc1cc(Cl)c2nc(-c3cc(C)cc4nc(OC(C)C)ncc34)sc2c1    37.7%
CCOc1ncc2cc(C)cc(-c3nc4c(Cl)cc(OC)cc4s3)c2n1    36.7%

Attention now shifts to the item below.
Exercise: Can you share its inhibition? I mean this compound: "COc1cc(Cl)c2nc(-c3cc(C)cc4cnc(OC(C)C)nc34)sc2c1"
Solution: 26.3%
